Tested target: SMYD3 (Homo sapiens)
Experiment summary: SMYD3 biochemical assay (MTase-Glo, MAP3K2 peptide substrate)
Measurement setup: Table 3; MTase assay, MAP3K2 peptide substrate; read-out: IC50
Measured attribute: pIC50
Value format note: pIC50 is -log10 of concentration (mol/L); just state the number.

Some solved cases for reference:
NCc1cc(-c2cc(Cl)c3ccc(C(=O)N4CCN(C(=O)c5cn(C6CC6)nn5)CC4)cc3n2)ccc1F [E019]	7.41
CCCOC(=O)N1CCN(C(=O)c2ccc3c(Cl)cc(-c4ccc(S(=O)(=O)NC)cc4)nc3c2)CC1 [B116]	6.37
CCCOC(=O)N1CCN(C(=O)c2ccc3c(Cl)cc(-c4cnc5[nH]nc(C)c5c4)nc3c2)C[C@H]1C [B199]	6.46

For the molecule shown here, COc1ccc(-c2cc(Cl)c3ccc(C(=O)N4CCN(C(=O)c5cn(C6CC6)nn5)CC4)cc3n2)cc1CN [D014] , give the reported pIC50. 7.16

For the molecule shown here, CCCOC(=O)N1CCN(C(=O)c2ccc3c(Cl)cc(-c4ccc(F)c(CN)c4)nc3c2)CC1 [B172] , give the reported pIC50. 7.41

For the molecule shown here, CCCOC(=O)N1CCN(C(=O)c2ccc3c(Cl)cc(-c4nccs4)nc3c2)C[C@H]1C [B080] , give the reported pIC50. 5.00

###

Tested target: SMYD3 (Homo sapiens)
Sequence (Q9H7B4 1-428): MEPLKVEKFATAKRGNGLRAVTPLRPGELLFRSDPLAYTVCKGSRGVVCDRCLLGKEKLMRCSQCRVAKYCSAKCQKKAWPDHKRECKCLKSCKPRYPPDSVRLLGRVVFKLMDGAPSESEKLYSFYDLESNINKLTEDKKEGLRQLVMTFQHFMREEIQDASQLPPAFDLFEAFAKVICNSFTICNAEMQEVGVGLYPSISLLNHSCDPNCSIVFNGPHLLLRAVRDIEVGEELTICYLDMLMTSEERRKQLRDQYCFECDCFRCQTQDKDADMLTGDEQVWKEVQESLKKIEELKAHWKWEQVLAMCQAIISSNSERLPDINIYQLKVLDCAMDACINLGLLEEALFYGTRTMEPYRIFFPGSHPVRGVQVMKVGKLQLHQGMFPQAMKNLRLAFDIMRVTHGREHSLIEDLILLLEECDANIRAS
Experiment summary: SMYD3 biochemical assay (MTase-Glo, MAP3K2 peptide substrate)
Measurement setup: Table 3; MTase assay, MAP3K2 peptide substrate; read-out: IC50
Measured attribute: IC50 (nM)
Just the number please, in nM, no unit attached.

Some solved cases for reference:
CCCOC(=O)N1CCN(C(=O)c2ccc3c(Cl)cc(-c4ccc(S(N)(=O)=O)cc4)nc3c2)CC1	130
CCCOC(=O)N1CCN(C(=O)c2ccc3c(Cl)cc(-c4ccc5[nH]nc(C)c5c4)nc3c2)[C@@H](C)C1	200
CCCOC(=O)N1CCN(C(=O)c2ccc3c(Cl)c4c(nc3c2)CC(c2ccccc2)CC4)CC1 (centres unmarked)	1200
CCCOC(=O)N1CCN(C(=O)c2ccc3c(Cl)cc(-c4ccc(OC)c(C)c4)nc3c2)CC1	350

For the compound shown here, CCCOC(=O)N1CCN(C(=O)c2ccc3c(Cl)c4c(nc3c2)CC(CCNC(=N)N)CC4)[C@@H](C)C1 (some centres unmarked) , give the reported IC50. 140

For the compound shown here, "C=CCOC(=O)N1CCN(C(=O)c2ccc3c(Cl)c4c(nc3c2)CCC4)CC1" , give the reported IC50. 10000

For the compound shown here, "CCCOC(=O)N1CCN(C(=O)c2ccc3c(Cl)cc(-c4cnc(C)s4)nc3c2)CC1" , give the reported IC50. 3670

For the compound shown here, "CCCOC(=O)N1CCN(C(=O)c2ccc3c(Cl)cc(-c4ccc(O)c(F)c4)nc3c2)[C@@H](C)C1" , give the reported IC50. 200

###

Tested target: UniProtKB Q9H7B4
Sequence (Q9H7B4 1-428): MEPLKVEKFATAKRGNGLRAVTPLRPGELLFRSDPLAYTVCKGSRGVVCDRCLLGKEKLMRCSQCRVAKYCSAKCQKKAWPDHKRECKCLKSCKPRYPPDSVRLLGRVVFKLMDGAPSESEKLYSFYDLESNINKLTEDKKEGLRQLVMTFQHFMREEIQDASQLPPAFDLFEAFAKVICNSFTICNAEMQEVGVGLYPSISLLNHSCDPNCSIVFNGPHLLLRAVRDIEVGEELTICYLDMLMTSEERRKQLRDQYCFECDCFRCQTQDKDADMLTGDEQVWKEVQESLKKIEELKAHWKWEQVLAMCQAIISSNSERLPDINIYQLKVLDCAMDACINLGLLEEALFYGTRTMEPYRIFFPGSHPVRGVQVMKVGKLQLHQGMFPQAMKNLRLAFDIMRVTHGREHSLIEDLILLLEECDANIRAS
Experiment summary: SMYD3 biochemical assay (MTase-Glo, MAP3K2 peptide substrate)
Measurement setup: Table 3; MTase assay, MAP3K2 peptide substrate; read-out: IC50
Protocol: A SMYD3 enzymatic assay was developed using Promega's Methyltransferase-Glo™ reagents. In the assay, SMYD3 catalyzes the methylation of the MAP3K2 peptide substrate by transferring a methyl group from SAM to MAP3K2 peptide and further converts the SAM to SAH. The SMYD3 methyltransferase activity is measured based on the amount of SAH produced from the reaction through the use of coupling enzymes that convert the SAH to ATP. […]
Measured attribute: IC50 (nM)
Just the number please, in nM, no unit attached.

CCCOC(=O)N1CCN(C(=O)c2ccc3c(Cl)c4c(nc3c2)CCCC4)CC1COC(=O)CCOC (stereo not shown) [A055]	2400
C=CCC1CCCc2c1nc1cc(C(=O)N3CCN(C(=O)OCCC)CC3)ccc1c2Cl (stereo not shown) [A146]	560
CCCOC(=O)N1CCN(C(=O)c2ccc3c(Cl)c4c(nc3c2)CC(c2ccccn2)CC4)C[C@H]1C (stereo partly shown) [A074]	150

Next:
For the compound shown here, C[C@@H]1CN(C(=O)c2ccc3c(Cl)cc(-c4ccc(C(C)(C)O)cc4)nc3c2)CCN1C(=O)c1cn(C2CC2)nn1 [D006] , give the reported IC50. 52

###

Tested target: SMYD3 (Homo sapiens)
Sequence (Q9H7B4 1-428): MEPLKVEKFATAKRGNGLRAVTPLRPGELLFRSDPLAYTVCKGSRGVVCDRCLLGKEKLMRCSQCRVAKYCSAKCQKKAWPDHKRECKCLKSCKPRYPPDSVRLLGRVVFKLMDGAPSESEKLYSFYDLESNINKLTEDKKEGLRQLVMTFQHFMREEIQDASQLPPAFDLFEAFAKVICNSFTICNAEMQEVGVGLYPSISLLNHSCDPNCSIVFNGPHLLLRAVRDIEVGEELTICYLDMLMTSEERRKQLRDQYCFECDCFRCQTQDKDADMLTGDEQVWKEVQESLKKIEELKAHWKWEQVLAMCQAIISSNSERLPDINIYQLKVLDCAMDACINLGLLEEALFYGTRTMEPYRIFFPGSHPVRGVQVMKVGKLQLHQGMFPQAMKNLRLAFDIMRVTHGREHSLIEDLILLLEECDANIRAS
Experiment summary: SMYD3 biochemical assay (MTase-Glo, MAP3K2 peptide substrate)
Measurement setup: Table 3; MTase assay, MAP3K2 peptide substrate; read-out: IC50
Procedure: A SMYD3 enzymatic assay was developed using Promega's Methyltransferase-Glo™ reagents. In the assay, SMYD3 catalyzes the methylation of the MAP3K2 peptide substrate by transferring a methyl group from SAM to MAP3K2 peptide and further converts the SAM to SAH. The SMYD3 methyltransferase activity is measured based on the amount of SAH produced from the reaction through the use of coupling enzymes that convert the SAH to ATP. […]
Listing: pIC50 of selected compounds
Value format note: pIC50 is -log10 of concentration (mol/L); just state the number.

Some solved cases for reference:
CCCOC(=O)N1CCN(C(=O)c2ccc3c(Cl)cc(-c4ccc(C(C)OCC)cc4)nc3c2)CC1 (centres unmarked) [B239]	5.89
CCCOC(=O)N1CCN(C(=O)c2ccc3c(Cl)cc(-c4ccc(C5(N)CC5)cc4)nc3c2)C[C@H]1C [B281]	7.92
CCCOC(=O)N1CCN(C(=O)c2ccc3c(Cl)c(C)c(-c4ccc(C)cc4)nc3c2)[C@@H](C)C1 [B024]	6.17
CCCOC(=O)N1CCN(C(=O)c2ccc3c(Cl)c4c(nc3c2)CC(c2ccnc(C(N)=O)c2)CC4)[C@@H](C)C1 (some centres unmarked) [A145]	6.66
CCCOC(=O)N1CCN(C(=O)c2ccc3c(Cl)c4c(nc3c2)CC(c2ccccn2)CC4)[C@@H](C)C1 (some centres unmarked) [A086]	7.02
CCCOC(=O)N1CCN(C(=O)c2ccc3c(Cl)c4c(nc3c2)CC(C#N)CC4)CC1 (centres unmarked) [A025]	5.72
CCCOC(=O)N1CCN(C(=O)c2ccc3c(Cl)c4c(nc3c2)CC(c2ccc(F)cn2)CC4)CC1 (centres unmarked) [A094]	6.85
CCCOC(=O)N1CCN(C(=O)c2ccc3c(Cl)cc(-c4ccncc4)nc3c2)CC1 [B013]	6.02

For the compound shown here, CCCOC(=O)N1CCN(C(=O)c2ccc3c(Cl)cc(-c4ccc(F)c(O)c4)nc3c2)CC1 [B157] , give the reported pIC50. 6.44
